I'd appreciate it if you could supply self-aminoacylation values for the items below.
- System: biotinyl-Val-oxazolone
- TEST DETAILS: self-aminoacylation, catalytic enhancement (BVO) (fold over background); higher = more active; k-Seq, kA / k0A0; sequences stand for … in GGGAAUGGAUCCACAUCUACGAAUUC…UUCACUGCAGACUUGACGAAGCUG
Fewer inactive variants are shown than the library holds.
One number for each entry.

QUERY SEQUENCE	PARAMETER MEASURED	READOUT VALUE
AUACUUCAAGCAAUCGGUCUG [Fam1A.1 aminoacylation ribozyme variant]	self-aminoacylation	0.77

Please give self-aminoacylation for each item listed below.
1. ACUCACCUAGUUCAUCGGGUG [Fam2.2 aminoacylation ribozyme variant]
2. GAGUUUGCUAUUAGUCGCAAG [Fam3.1 aminoacylation ribozyme variant]
3. UUUCACCUAGGUUAUCGGGUG [Fam2.2 aminoacylation ribozyme variant]

Return:
1: 3.36; 2: 1.01; 3: 2.93

List reported self-aminoacylation for each of these sequences:
1. AUUAACCCAGGUCAUCGGGUG [Fam2.2 aminoacylation ribozyme variant]
2. AUGCCCCUAGGUCAUCGGGUG [Fam2.2 aminoacylation ribozyme variant]
3. AAGUUUGCUAAUAGCGGCAAG [Fam3.1 aminoacylation ribozyme variant]
4. AAGUUCGCUAAUCGUCGCAAG [Fam3.1 aminoacylation ribozyme variant]
5. UAGUUUGCUAAUAGUCACAAG [Fam3.1 aminoacylation ribozyme variant]

Return:
1: 3.58; 2: 5.39; 3: 0.646; 4: 1.48; 5: 1.31

Please state self-aminoacylation for every sequence in the list that follows.
1. ACACACUUCAAGCAAUCGGGC [Fam1B.1 aminoacylation ribozyme variant]
2. CUACUCCAAACAAUCGGUGUG [Fam1A.1 aminoacylation ribozyme variant]
3. UCACACUUCAAUCAAUCGGUC [Fam1B.1 aminoacylation ribozyme variant]
4. AAGUUUGCUAAUAGUCCCCAG [Fam3.1 aminoacylation ribozyme variant]
5. UCACACUUGAAGCAAUCGGUC [Fam1B.1 aminoacylation ribozyme variant]
6. CCACACUUCAAAGAAUCGGUC [Fam1B.1 aminoacylation ribozyme variant]

Return:
1. 2.73
2. 0.879
3. 1.08
4. 0.901
5. 0.774
6. 0.955

For each entry beneath this line, provide reported self-aminoacylation.
1. CUACUUCAAACAAUGGGUCUC [Fam1A.1 aminoacylation ribozyme variant]
2. AUUAUCCUGGUCAUGGAGUGA [Fam2.1 aminoacylation ribozyme variant]

Return:
0.658
2.6

====

- Test system: biotinyl-Trp-oxazolone
- TEST DETAILS: self-aminoacylation, catalytic enhancement (BWO) (fold over background); higher = more active; k-Seq, kA / k0A0; sequences stand for … in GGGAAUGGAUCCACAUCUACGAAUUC…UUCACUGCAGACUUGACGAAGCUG
Fewer inactive variants are shown than the library holds.
Categories are defined by ranges of self-aminoacylation, namely low group = under 0.9, middle group = from 0.9 up to 5, high group = 5 and over

Enquiry: Which band does AUUACUGUGGUCAUCGAGUGA [Fam2.1 aminoacylation ribozyme variant] fall in?
Return: high group

Enquiry: // query: CCACACUUCAAGCGAUCGGGC [Fam1B.1 aminoacylation ribozyme variant]
Return: middle group

Enquiry: Next record, please: UUUACCCUGGUCAUCGUGUGA [Fam2.1 aminoacylation ribozyme variant]
Return: middle group

Enquiry: Now consider AAGUUUGCUAAUACUCUCAAG [Fam3.1 aminoacylation ribozyme variant] .
Return: low group

Enquiry: Follow-up item: AUUGCCCUGGACAUCGAGUGA [Fam2.1 aminoacylation ribozyme variant]
Return: high group

Enquiry: Thanks! And AUCCACAUAGGUCAUCGGGUG [Fam2.2 aminoacylation ribozyme variant] ?
Return: high group

Enquiry: Next sequence up: AUUCAGCUAGGGCAUCGGGUG [Fam2.2 aminoacylation ribozyme variant]
Return: high group

Enquiry: Please do the same for AAGUUCGCUAAUAGCCGCAAG [Fam3.1 aminoacylation ribozyme variant] as well.
Return: middle group
